Provenance of the data: PubChem BioAssay AID1347165

- assay-target: Lysine-specific demethylase 5B (Homo sapiens) (UniProt Q9UGL1)
- Sequence (Q9UGL1 whole entry, looked up): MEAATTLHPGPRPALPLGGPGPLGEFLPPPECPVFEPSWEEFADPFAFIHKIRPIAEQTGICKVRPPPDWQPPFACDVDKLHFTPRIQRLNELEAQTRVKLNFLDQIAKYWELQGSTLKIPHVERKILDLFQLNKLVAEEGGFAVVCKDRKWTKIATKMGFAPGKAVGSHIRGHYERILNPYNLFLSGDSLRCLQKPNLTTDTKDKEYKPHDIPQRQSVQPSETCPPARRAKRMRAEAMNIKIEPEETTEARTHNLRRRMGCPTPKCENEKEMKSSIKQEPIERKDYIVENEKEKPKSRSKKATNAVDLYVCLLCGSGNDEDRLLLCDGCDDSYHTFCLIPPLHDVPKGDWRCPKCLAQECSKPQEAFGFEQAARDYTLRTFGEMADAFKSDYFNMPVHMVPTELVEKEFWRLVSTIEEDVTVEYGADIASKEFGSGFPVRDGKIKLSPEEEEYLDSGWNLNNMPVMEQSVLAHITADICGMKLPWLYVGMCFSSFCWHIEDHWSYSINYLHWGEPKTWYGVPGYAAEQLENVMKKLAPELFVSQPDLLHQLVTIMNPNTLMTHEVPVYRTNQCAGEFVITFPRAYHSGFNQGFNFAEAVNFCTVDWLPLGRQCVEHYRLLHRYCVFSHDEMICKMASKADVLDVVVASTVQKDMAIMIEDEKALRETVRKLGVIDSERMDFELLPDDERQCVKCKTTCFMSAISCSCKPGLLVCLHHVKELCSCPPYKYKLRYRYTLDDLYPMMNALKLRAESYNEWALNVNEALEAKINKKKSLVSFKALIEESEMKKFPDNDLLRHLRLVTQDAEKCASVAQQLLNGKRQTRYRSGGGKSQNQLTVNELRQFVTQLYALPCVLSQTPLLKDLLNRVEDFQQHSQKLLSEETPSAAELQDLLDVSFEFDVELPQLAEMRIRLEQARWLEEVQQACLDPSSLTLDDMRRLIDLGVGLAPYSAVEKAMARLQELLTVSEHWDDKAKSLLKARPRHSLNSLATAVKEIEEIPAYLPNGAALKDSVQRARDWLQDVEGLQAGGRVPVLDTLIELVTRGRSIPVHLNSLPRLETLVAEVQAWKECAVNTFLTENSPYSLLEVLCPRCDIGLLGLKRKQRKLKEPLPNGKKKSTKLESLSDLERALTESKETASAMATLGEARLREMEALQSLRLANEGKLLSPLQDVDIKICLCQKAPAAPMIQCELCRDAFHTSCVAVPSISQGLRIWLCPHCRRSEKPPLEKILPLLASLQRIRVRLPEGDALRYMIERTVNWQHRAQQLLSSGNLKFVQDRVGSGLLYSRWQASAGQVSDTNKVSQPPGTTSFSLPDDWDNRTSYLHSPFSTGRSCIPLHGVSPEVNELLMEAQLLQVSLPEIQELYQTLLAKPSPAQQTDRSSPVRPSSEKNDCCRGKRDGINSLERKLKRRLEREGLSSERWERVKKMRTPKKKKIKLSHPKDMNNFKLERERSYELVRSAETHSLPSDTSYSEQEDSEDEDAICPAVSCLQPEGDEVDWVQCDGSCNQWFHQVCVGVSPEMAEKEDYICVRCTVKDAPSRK
- protocol-text: Primary screen for KDM5B Histone Demethylases FDH-coupled qHTS; also: nearly all actives have a fitted effect of over 70% in size
- measurement-parameters: FDH-coupled NADH fluorescence (FDH is formaldehyde dehydrogenase); series mostly up to 57.7 µM
About 5,700 (2.6%) of roughly 220,000 compounds were called active. Not shown: some 18% with an inconclusive outcome. Calls follow the shape of the dose curve; as a rule, active = well fitted inhibition curve with a large enough effect; inconclusive = small, poorly fitted or top-dose-only effect; inactive = no such curve, though single readings can be large or run the other way. The sample holds actives, similar compounds and a random draw of the others, so the mix is not that of the screen.
Outcomes: active, inactive

chemical-structure: CN(C)CCN(Cc1ccc(Cl)cc1)C(=O)c1ccncc1
assay-target: Lysine-specific demethylase 5B (Homo sapiens) (UniProt Q9UGL1)
category: inactive

chemical-structure: Cc1cn2nc(C(=O)Nc3ccc(F)cc3C)cc2c(N(C)Cc2ccccc2)n1
assay-target: Lysine-specific demethylase 5B (Homo sapiens) (UniProt Q9UGL1)
category: active

chemical-structure: O=C(NCC1CC1)c1nc2c(o1)CCN(Cc1cccc(F)c1F)CC2
assay-target: Lysine-specific demethylase 5B (Homo sapiens) (UniProt Q9UGL1)
category: inactive

chemical-structure: CC(=O)N[C@H]1CN(c2cncc(C(=O)N3CCCC3)n2)C[C@@H]1C1CC1
assay-target: Lysine-specific demethylase 5B (Homo sapiens) (UniProt Q9UGL1)
category: active

chemical-structure: CSc1ccccc1N=Cc1ccc(Cl)c(Cl)c1
assay-target: Lysine-specific demethylase 5B (Homo sapiens) (UniProt Q9UGL1)
category: inactive

chemical-structure: O=C(NC(=S)NC1CCCCC1)c1ccc(Cl)cc1
assay-target: Lysine-specific demethylase 5B (Homo sapiens) (UniProt Q9UGL1)
category: inactive

chemical-structure: CC(C)n1ncc2cc(C(=O)N3CCCCc4ccccc43)cnc21
assay-target: Lysine-specific demethylase 5B (Homo sapiens) (UniProt Q9UGL1)
category: inactive

chemical-structure: O=C(Nc1ccccc1)c1nc2c(o1)CCN(Cc1cccc(Cl)c1)CC2
assay-target: Lysine-specific demethylase 5B (Homo sapiens) (UniProt Q9UGL1)
category: active

chemical-structure: CCCCc1ccc(C(=O)NCc2cccnc2)cc1
assay-target: Lysine-specific demethylase 5B (Homo sapiens) (UniProt Q9UGL1)
category: inactive

chemical-structure: Cn1c(CCN2CCCCC2)nc2cc(NC(=O)c3ccccc3Cl)ccc21
assay-target: Lysine-specific demethylase 5B (Homo sapiens) (UniProt Q9UGL1)
category: inactive

chemical-structure: Cc1cn2nc(C(=O)Nc3cccc(F)c3)cc2c(N(C)Cc2ccccc2)n1
assay-target: Lysine-specific demethylase 5B (Homo sapiens) (UniProt Q9UGL1)
category: inactive

chemical-structure: CCN(CC)c1ccc(C(=S)N(C)C)cc1
assay-target: Lysine-specific demethylase 5B (Homo sapiens) (UniProt Q9UGL1)
category: inactive

chemical-structure: COCCCNC(=O)c1ccc2c(c1)n(Cc1cccc(OC)c1)c(=O)c1ccnn12
assay-target: Lysine-specific demethylase 5B (Homo sapiens) (UniProt Q9UGL1)
category: inactive

chemical-structure: Cc1ccccc1NC(=O)Cn1c(=O)n(Cc2ccco2)c(=O)c2ccc(C(=O)NC3CCCC3)cc21
assay-target: Lysine-specific demethylase 5B (Homo sapiens) (UniProt Q9UGL1)
category: inactive

chemical-structure: Cc1cc(C)cc(NC(=O)N(C)Cc2ccccc2)c1
assay-target: Lysine-specific demethylase 5B (Homo sapiens) (UniProt Q9UGL1)
category: inactive

chemical-structure: COc1nc2ccccc2nc1N1CCC(C(=O)NCc2ccccc2)CC1
assay-target: Lysine-specific demethylase 5B (Homo sapiens) (UniProt Q9UGL1)
category: inactive

chemical-structure: Cn1ccc(Nc2cc3c(cn2)CN(CCc2ccccc2)CCN3)n1
assay-target: Lysine-specific demethylase 5B (Homo sapiens) (UniProt Q9UGL1)
category: inactive
